From various publications: pKi for Tyrosine-protein kinase JAK2 (Homo sapiens, UniProt O60674).
pKi: −log10 of the molar value.

// below: answered compounds
COMPOUND	pKi
C[C@H](Nc1cc(-c2c(N)nn3cccnc23)nc(OCC2CCCN(C)C2)n1)c1ccc(F)cc1 (some centres unmarked)	7.00 to 8.00
CC1=Nc2ccccc2-c2ccnc3[nH]cc1c23	5.60 to 6.60
FC(F)(F)CCCn1cc(-c2ncnc3[nH]ccc23)cn1	> 7.00

GET /values?readout=pKi&item= Cc1cc(C2Nc3ccccc3-c3ccnc4[nH]cc2c34)ccc1O (centres unmarked)
> 6.60

Now consider CO[C@H]1CN(c2ccn(-c3cc(-c4c(F)cccc4C#N)nc4c3C(=O)NC4)n2)C[C@@]1(C)O and answer again.
8.00 to 10.00

Now consider Oc1ccc(C2Nc3ncccc3-c3ccnc4[nH]cc2c34)cc1 (centres unmarked) and answer again.
> 6.60

Now consider OC[C@@H]1CCCN1c1nc(-c2c[nH]c3ncncc23)ncc1F and answer again.
5.30 to 6.30

Now consider C[C@H]1CC[C@@H](O)CN1c1ccn(-c2cc(-c3c(F)cccc3C#N)nc3c2C(=O)NC3)n1 and answer again.
7.00 to 8.00

Now consider N#Cc1cccc(F)c1-c1cc(-n2ccc(N3CCC[C@@H](N)C3)n2)c2c(n1)CNC2=O and answer again.
8.00 to 10.00

Now consider [2H]C1([2H])CC(O)(C([2H])([2H])[2H])C([2H])([2H])N1c1ccn(-c2cc(-c3c(F)cccc3C#N)nc3c2C(=O)NC3)n1 (centres unmarked) and answer again.
8.00 to 10.00

Now consider Oc1ccc(C2Nc3ccccc3-c3ncnc4[nH]cc2c34)cc1Br (centres unmarked) and answer again.
> 6.60

Now consider CCNC(=O)C(C)(N)c1ccc(Nc2nc(-c3c(F)cccc3F)nc3c2C(=O)NC3)cc1 (centres unmarked) and answer again.
7.00 to 8.00

Now consider COc1cc(C2Nc3ccccc3-c3ccnc4[nH]cc2c34)cc(O)c1O (centres unmarked) and answer again.
> 6.60

Now consider COCCN(C)C(=O)c1cc(-c2ncnc3[nH]cc(C)c23)c[nH]1 and answer again.
6.30 to 7.00

Now consider Oc1ccc(C2Nc3ccccc3-c3ccnc4[nH]cc2c34)cc1Cl (centres unmarked) and answer again.
> 6.60

Now consider Cc1ccn2nc(N)c(-c3cc(N[C@@H](C)c4ccc(F)cc4)ncn3)c2n1 and answer again.
> 8.00

Now consider CCCN(CC)C(=O)c1cc(-c2ncnc3[nH]cc(C)c23)c[nH]1 and answer again.
> 7.00

---

From various publications: Ki for UniProtKB O60674.

GET /values?readout=Ki&item= COC(=O)C1CC=CCC1C(=O)Nc1nc(-c2ncnc3[nH]ccc23)cs1 (stereo not drawn)
< 100 nM

Now consider CCN(C)C(=O)[C@H]1CCCN1c1nc(-c2c[nH]c3ncc(Cl)cc23)ncc1F and answer again.
≥ 500 nM

Now consider O=C(c1ccc(-c2ncnc3[nH]ccc23)o1)N(CCC(F)(F)F)Cc1ccccc1 and answer again.
< 100 nM

Now consider CO[C@H]1CN(c2ccn(-c3cc(-c4c(F)cccc4C#N)nc4c3C(=O)NC4)n2)CC[C@H]1O and answer again.
10 to 100 nM

---

From various publications: Ki for UniProt O60674.

// below: answered compounds
COMPOUND	OBSERVED_RESULT
CCOC(=O)c1cnc(-c2c[nH]c3ncc(Cl)cc23)nc1N1CCC[C@@H]1C(=O)N(C)CC(F)(F)F	≥ 500 nM
Oc1ccccc1C1Nc2ccccc2-c2ccnc3[nH]cc1c23 (centres unmarked)	250 to 2500 nM
N#Cc1cccc(F)c1-c1cc(-n2cc3c(n2)CNC3)c2c(n1)CNC2=O	100 to 1000 nM
C[C@H](c1ccccc1)N(C)c1cc(-c2c(N)nn3cccnc23)ncn1	10 to 100 nM
Clc1ccc(/C=C/c2ncnc3[nH]ccc23)cc1	< 500 nM

GET /values?readout=Ki&item= [2H]C([2H])([2H])O[C@@H]1CN(c2ccn(-c3cc(-c4c(F)cccc4C#N)nc4c3C(=O)NC4)n2)C[C@@H]1O
10 to 100 nM

Now consider CC(C)[C@@H](Nc1cc(-c2c(N)nn3cccnc23)nc(N2CCOCC2)n1)c1ccc(F)cc1F and answer again.
100 to 500 nM

Now consider Nc1ccc(C2Nc3ccccc3-c3ccnc4[nH]cc2c34)cc1 (centres unmarked) and answer again.
< 250 nM

Now consider O=C(NCC(F)(F)F)[C@@H]1C[C@H](F)CN1c1nc(-c2c[nH]c3ncncc23)ncc1F and answer again.
500 to 5000 nM

Now consider CCCC(CCC)n1cc(-c2ncnc3[nH]ccc23)cn1 and answer again.
< 100 nM

Now consider CCNC(=O)C(O)(CC(F)(F)F)c1ccc(Nc2nc(-c3c(F)cccc3F)nc3c2C(=O)NC3)cc1 (centres unmarked) and answer again.
100 to 1000 nM

Now consider CC(C)(C)c1cc(C2Nc3ccccc3-c3ccnc4[nH]cc2c34)cc(C(C)(C)C)c1O (centres unmarked) and answer again.
> 2500 nM

Now consider Fc1cccc(C2Nc3ncccc3-c3ccnc4[nH]cc2c34)c1 (centres unmarked) and answer again.
250 to 2500 nM

Now consider CCC(Oc1cc(-c2c(N)nn3cccnc23)ncn1)c1ccccc1 (centres unmarked) and answer again.
< 10 nM

Now consider Clc1ccccc1COc1cccc(C2Nc3ccccc3-c3ccnc4[nH]cc2c34)c1 (centres unmarked) and answer again.
< 250 nM

Now consider CCC[C@@H](Nc1cc(-c2c(N)nn3cccnc23)ncn1)c1ccc(F)c(F)c1 and answer again.
10 to 100 nM

Now consider C#CCN(C)C(=O)c1cc(-c2ncnc3[nH]ccc23)c[nH]1 and answer again.
< 100 nM

---

From various publications: Ki for Tyrosine-protein kinase JAK2 (Homo sapiens, UniProt O60674).

MOLECULE	MEASURED_PARAMETER	OBSERVED_RESULT
c1cc(-c2ncnc3[nH]ccc23)[nH]n1	Ki	500 to 5000 nM
O=C1CCOc2cc(Nc3cc(-c4c(F)cccc4F)nc4c3C(=O)NC4)ccc21	Ki	≥ 1000 nM
O=C(c1cc(-c2ncnc3[nH]ccc23)c[nH]1)N1CCC(CO)CC1	Ki	100 to 500 nM
CS(=O)(=O)c1ccc(C2Nc3ccccc3-c3ccnc4[nH]cc2c34)cc1 (centres unmarked)	Ki	> 2500 nM

GET /values?readout=Ki&item= N#Cc1cccc(F)c1-c1cc(-n2ccc(N3CC[C@@]4(CCNC4=O)C3)n2)c2c(n1)CNC2=O
0.1 to 10 nM

Now consider N#CC1CCCN1C(=O)c1cc(-c2ncnc3[nH]ccc23)c[nH]1 (centres unmarked) and answer again.
< 100 nM

Now consider CC(C)[C@@H](Nc1cc(-c2c(N)nn3cccnc23)nc(S(C)(=O)=O)n1)c1ccc(F)cc1F and answer again.
100 to 500 nM

Now consider CC(C)NCCOc1nc(N[C@@H](C)c2ccc(F)cc2F)cc(-c2cnn3cccnc23)n1 and answer again.
< 10 nM

---

From various publications: pKi for Tyrosine-protein kinase JAK2 (Homo sapiens, UniProt O60674).
pKi: −log10 of the molar value.

MOLECULE	pKi
O=C1Nc2ccccc2-c2ncnc3[nH]cc(c23)C1c1ccc(O)cc1 (stereo not shown)	> 6.60
CO[C@H]1CCN(c2ccn(-c3cc(-c4c(F)cccc4C#N)nc4c3C(=O)NC4)n2)C[C@@]1(C)O	7.00 to 8.00
[2H]C1([2H])NC(=O)c2c(-n3ccc(N4C([2H])([2H])CC(O)(C([2H])([2H])[2H])C4([2H])[2H])n3)cc(-c3c(F)cccc3C#N)nc21 (stereo not shown)	7.00 to 8.00
Nc1nn2cccnc2c1-c1cc(O[C@@H](c2ccccc2)C(F)(F)F)ncn1	6.30 to 7.00
O=C(CC1CC1)Nc1nc(-c2ncnc3[nH]ccc23)cs1	> 7.00

GET /values?readout=pKi&item= N#Cc1cccc(F)c1-c1cc(-n2ccc(N3CCC4(CCNC4=O)C3)n2)c2c(n1)CNC2=O (stereo not shown)
7.00 to 8.00

Now consider C[C@H](Nc1cc(-c2c(N)nn3cccnc23)nc(O)n1)c1ccc(F)cc1 and answer again.
> 8.00

Now consider CN(c1ccnc(-c2c[nH]c3ncncc23)n1)C1(C(=O)NCC(F)(F)F)CC1 and answer again.
> 6.30

Now consider N#Cc1cccc(F)c1-c1cc(-n2cc(F)c(N3CC[C@@H](O)C3)n2)c2c(n1)CNC2=O and answer again.
7.00 to 8.00

Now consider CC(C)c1ncn(-c2cc(-c3c(F)cccc3C#N)nc3c2C(=O)NC3)n1 and answer again.
≤ 6.00

Now consider N#Cc1cccc(F)c1-c1cc(-n2ccc(N3CCC[C@@H](C(N)=O)C3)n2)c2c(n1)CNC2=O and answer again.
7.00 to 8.00

Now consider FC(F)(F)Oc1ccc(C2Nc3ccccc3-c3ccnc4[nH]cc2c34)cc1 (stereo not shown) and answer again.
5.60 to 6.60

Now consider C[C@H](Nc1cc(-c2cnn3cccnc23)nc(OCC2CCCNC2)n1)c1ccc(F)cc1F (stereo partly shown) and answer again.
> 8.00

Now consider CC[C@H](Nc1cc(-c2c(N)nn3cccnc23)ncn1)c1ccc(F)cc1Cl and answer again.
> 8.00

Now consider C[C@H](Nc1cc(-c2c(N)nn3cccnc23)nc(OCC2COC(C)(C)O2)n1)c1ccc(F)cc1 (stereo partly shown) and answer again.
> 8.00

Now consider CCCCN(CCC#N)C(=O)c1cc(-c2ncnc3[nH]ccc23)c[nH]1 and answer again.
> 7.00
